Target: Replicase polyprotein 1ab (Severe acute respiratory syndrome coronavirus 2, UniProt P0DTD1)
Experiment: Inhibition of SARS-CoV-2 papain-like protease (PLpro) by enzymatic assay
Quantity Name: pIC50
Friendly reminder that pIC50 comes from taking -log10 of the concentration in mol/L.

Q: Consider the compound Cc1ccc(-c2cc(-c3ccc(C)s3)cc([C@@H](C)NC(=O)c3cc(OCCN(C)C)ccc3C)c2)s1 and give its recorded pIC50.
Ans: 6.85

====

Target: Replicase polyprotein 1ab (Severe acute respiratory syndrome coronavirus 2, UniProt P0DTD1)
Assay: Inhibition of SARS-CoV2 PLpro extracted from Escherichia coli using Z-RLRGG-AMC as substrate incubated for 30 mins by fluorescence based analysis
Quantity Name: IC50 (µM)
Give just the numeric value; µM need not be written.

Q: Consider the compound CNCCCNc1ccc(C)c(C(=O)N[C@H](C)c2cccc3ccccc23)c1 and give its recorded IC50.
Ans: 1.5

====

Target: Replicase polyprotein 1ab (Severe acute respiratory syndrome coronavirus 2)
Assay: Inhibition of SARS-CoV-2 3CL protease by FRET assay
# pIC50 annotations
Friendly reminder that pIC50 comes from taking -log10 of the concentration in mol/L.

Reference set, count: 4
{"Molecule": "CCC(C(=O)Nc1cc(NC2CNC2)ccc1C)n1cc(Cl)cc2nc(SCc3ccc(F)cc3)nc1-2 (racemic)", "pIC50": 7.05}
{"Molecule": "CCC(C(=O)Nc1cc(NC2CCNCC2)ccc1C)n1cc(Br)cc2nc(SCc3ccc(F)cc3)nc1-2 (racemic)", "pIC50": 7.30}
{"Molecule": "CCC(C(=O)Nc1cc(NC2CNC2)ccc1C)n1cc(F)cc2nc(SCc3ccc(F)cc3)nc1-2 (racemic)", "pIC50": 6.70}
{"Molecule": "CCC(C(=O)Nc1cc(NC2CNC2)ccc1C)n1cc(Br)cc2nc(SCc3ccc(F)cc3)nc1-2 (racemic)", "pIC50": 7.15}

Q: Consider the molecule CCC(C(=O)Nc1cc(NC2CCNC2)ccc1C)n1cc(Cl)cc2nc(SCc3ccc(F)cc3)nc1-2 (racemic) and give its recorded pIC50.
Ans: 7.15

====

Target: Replicase polyprotein 1ab (Severe acute respiratory syndrome coronavirus 2, UniProt P0DTD1)
Test: Inhibition of SARS-CoV-2 PLpro using Ubiquitin-AMC as substrate by enzymatic assay
# IC50 annotations
Give just the numeric value; µM need not be written.

{"Molecule": "Cc1ccc(N)cc1CN[C@H](C)c1cccc2ccccc12", "Quantity Name": "IC50", "Measured": 41.1}

Now consider a different molecule.
Q: Consider the molecule CC(=O)Nc1ccc(C)c(C(=O)NC(C)c2cccc3ccccc23)c1 (configuration not stated) and give its recorded IC50.
Ans: 11

====

Molecular target: UniProtKB P0DTD1
Assay: Binding affinity to SARS-CoV-2 3CL protease assessed as dissociation constant by SPR analysis
# pKd annotations
Friendly reminder that pKd comes from taking -log10 of the concentration in mol/L.

{"Molecule": "CCC(C(=O)Nc1cc(NC2CNC2)ccc1C)n1cc(Br)cc2nc(SCc3ccc(F)cc3)nc1-2 (racemic)", "Tested System": "UniProtKB P0DTD1", "pKd": 7.00}
{"Molecule": "CCC(C(=O)Nc1cc(NC2CCNCC2)ccc1C)n1cc(Br)cc2nc(SCc3ccc(F)cc3)nc1-2 (racemic)", "Tested System": "UniProtKB P0DTD1", "pKd": 6.77}

Now consider a different molecule.
Q: Consider the molecule CCC(C(=O)Nc1cc(NC2CNC2)ccc1C)n1cc(Cl)cc2nc(SCc3ccc(F)cc3)nc1-2 (racemic) and give its recorded pKd.
Ans: 7.00
